Assay: inhibition of 3D7 malaria parasite growth – strain 3D7 (AID 2306);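 also: 0% = DMSO wells and 100% = chloroquine plus artemisinin control wells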
Conditions: P. falciparum 3D7 erythrocytic growth, LDH absorbance, 72 h; at 2 µM; hits give high values
growth inhibition by entry:
Please reply with the bare figure in % and do not write the unit itself.

Below, 4 compounds whose answers are already recorded.
O=C(NCC1CC1)C1CCN(C(c2ccccc2)c2cc(F)cc(F)c2)CC1 (stereo not given)    99
OCCOCn1cnc2cnc(N[C@H]3OC[C@H](O)[C@@H](O)[C@@H]3O)nc21    82
CC(C)c1ccc(NC(=O)Nc2ccc(CCNCCCc3ccccc3)cc2)cc1    101
CC(=O)Nc1ncc(C(=O)Nc2cccc(-c3cccc(-c4nc5ccc(F)cc5[nH]4)c3)c2)s1    101

Field: next compound
**Q:** Bench note: what growth inhibition did "CCCCc1ccc(-c2ccc3[nH]c(C)c(Br)c(=O)c3c2)cc1" show?
**A:** 97

* * *

Assay: antimalarial activity against Dd2 strain (AID 2302);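 also: 0% = DMSO untreated growth and 100% = chloroquine plus artemisinin killed control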
Conditions: P. falciparum Dd2 in RBCs, LDH growth readout, 72 h; at 2 µM
Activity calls are given as the source filed them.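 How the source made its calls: active means growth inhibition above 50% at the single 2 µM test dose, taken to imply half-maximal potency below 2 µM; inactive means the rest.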
Write down the outcome that applies. Available outcomes: active, inactive

Illustrative cases are given below, each with its answer.
C=CCNS(=O)(=O)c1ccc(NC(=O)C(C)Oc2ccc([N+](=O)[O-])cc2)cc1 (stereo not given)    active
NCc1ccc(-c2ccccc2CNC2CCN(Cc3ccccc3)CC2)cc1    inactive
COc1ccc(CC(=O)NC(CCN2CCC3(CC2)CN(S(C)(=O)=O)c2ccccc23)c2ccc(Cl)c(Cl)c2)cc1OC (stereo not given)    active
CCNS(=O)(=O)c1ccc(Oc2ccc([N+](=O)[O-])cc2)cc1    active

Query compound follows.
**Q:** Field: outcome | Entry: CCCCCN1CCCC(CNS(=O)(=O)c2cccc(C(=O)Nc3ccc(C(F)(F)F)cc3)c2)C1 (stereo not given)
**A:** inactive

* * *

Molecular target: L-lactate dehydrogenase (Plasmodium falciparum (isolate CDC / Honduras)) (UniProt Q27743)
Sequence (Q27743 whole entry, looked up): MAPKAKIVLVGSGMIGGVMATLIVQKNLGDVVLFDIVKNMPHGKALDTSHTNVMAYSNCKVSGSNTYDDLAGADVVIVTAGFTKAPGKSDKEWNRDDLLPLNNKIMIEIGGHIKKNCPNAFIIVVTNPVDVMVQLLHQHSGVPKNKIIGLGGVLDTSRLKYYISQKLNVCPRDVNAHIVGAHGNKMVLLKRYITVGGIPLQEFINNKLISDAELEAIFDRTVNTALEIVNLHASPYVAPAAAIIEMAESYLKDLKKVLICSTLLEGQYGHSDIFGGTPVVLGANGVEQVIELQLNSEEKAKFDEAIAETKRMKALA
Assay: PfLDH activity inhibition – cell lysate, 3D7 strain, counter-screen for P. falciparum growth inhibition project (AID 2304);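 also: 0% = vehicle and 100% = reference inhibitor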
Conditions: P. falciparum 3D7 crude extract, LDH APAD/NBT absorbance; at 2 µM; hits give high values
Observable: inhibition (%)
Dear colleague, please return just the value in %, with no unit written.

**Q:** Please report the recorded inhibition for "CCC(C)(C)c1ccc2nc(N)nc(N)c2c1C" .
**A:** 1

**Q:** Which inhibition reading was recorded for the compound "O=C(Nc1ccc(OC2CCN(Cc3ccco3)CC2)c(Cl)c1)c1ccc2ncccc2c1" ?
**A:** -4

**Q:** Consider the compound CCCCC(N)COc1cccc2c(-c3ccncc3)c(-c3cccc(NC(=O)Nc4ccccc4)c3)nn12 (stereo not given) and give its measured inhibition.
**A:** 0

**Q:** Could you tell me which inhibition is on file for "O=C(C=Cc1ccc(Cl)c(Cl)c1)NCCCCCN1CCC(CCCNS(=O)(=O)c2ccc(Br)cc2)CC1" ?
**A:** -5

**Q:** So what does the record say about inhibition for "Cn1cncc1C(=O)Nc1cccc(-c2ccc(-c3nc4ccc(F)cc4[nH]3)cc2)c1" ?
**A:** -2

* * *

Experiment: HepG2 cytotoxicity, primary screen, cytotoxicity control for P. falciparum antimalarial project, cell-based, ATP luminescence (AID 2303);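 also: 0% = DMSO wells and 100% = digitonin-killed cells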
Conditions: HepG2 viability, 24-48 h, at 10 µM, hits give high values
Overview of reported inhibition across a group of molecules:
Report the figure in % without appending any unit label.

N#Cc1ccc(CN2CCCN(Cc3cccc(NC(=O)c4cc5ccccc5s4)c3)CC2)cc1    31
O=C(NC1CCCCN(Cc2ccc3c(c2)OCCO3)C1)c1cc(-c2ccccc2F)cs1 (stereo not drawn)    8
CN1CCCC1CCNc1ncc2c(-c3ccc(NC(=O)Nc4cc(C(F)(F)F)ccc4F)cc3)nn(C)c2n1 (stereo not drawn)    74

**Q:** # lookup: inhibition of "O=C(Nc1ccccc1-c1nc2ccccc2s1)C(Cl)(Cl)Cl"
**A:** 12

**Q:** Which measured inhibition value corresponds to "Cc1ccn2c(C(=O)N3CCN(c4cccc5c4nc(-c4ccoc4)n5Cc4ccccn4)CC3)c(C)nc2c1" ?
**A:** 2

**Q:** inhibition lookup needed for "O=C(Cn1c(CCc2cccc(F)c2F)nc(=O)c2ccccc21)N(Cc1ccc(-c2ccc(C(F)(F)F)cc2)cc1)C1CCN(C2=NCCS2)CC1" , thanks.
**A:** 62

**Q:** Could you share which inhibition value was measured for CC(Oc1ccc(Cl)cc1)C(=O)NCCC1CCN(CCCCCNC(=O)/C=C/c2ccc(Cl)c(Cl)c2)CC1 (stereo not drawn) ?
**A:** 48

**Q:** May I ask what inhibition has been recorded for "CCNc1cc(C(=O)N[C@@H](Cc2ccccc2)[C@H](O)CNCCc2cccc3ccccc23)cc(N2CCCC2=O)c1" ?
**A:** 12

* * *

Molecular target: L-lactate dehydrogenase (Plasmodium falciparum (isolate CDC / Honduras)) (UniProt Q27743)
Test: PfLDH activity inhibition – cell lysate, 3D7 strain, counter-screen for P. falciparum growth inhibition project (AID 2304);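 also: 0% = vehicle and 100% = reference inhibitor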
Conditions: P. falciparum 3D7 crude extract, LDH APAD/NBT absorbance; at 2 µM; hits give high values
// values below are reported inhibition
The figure you give is taken to be in %; do not add the unit.

Worked cases, answers included:
Cc1cc(NC(=O)[C@H](CC2CCCCC2)Nc2ccc(C#N)c3ccccc23)ccc1F    -6
O=C(NCCCCN1CCN(c2cccc3c2CCCC3)CC1)c1ccc(NC(=O)c2ccc(Cl)cc2)cc1    3
CC(C)Cc1cn(-c2nc(C(=N)N)cs2)c2cc(Cl)ccc12    -1
CN(C)Cc1cc(Nc2ccnc3cc(Cl)ccc23)ccc1O    -3
CCn1cc(CN2CCCC(C(=O)Nc3ccc(-c4nc5ccccc5[nH]4)cc3)C2)c(C)n1 (stereo not given)    2
Fc1ccc(-c2cncc(Nc3ccncc3)n2)cc1    -1
COc1ccc(Nc2nccc(N3CCC(NC(=O)c4cc5ccccc5s4)C3)n2)cc1 (stereo not given)    4
N#Cc1cccc(NC(=O)Nc2cccc(-c3cccc(-c4nc5ccc(F)cc5[nH]4)c3)c2)c1    0
Nc1c2c(nc3ccc(NC(=O)c4ccccc4)cc13)CCCC2    -8

// below: inhibition requested for another compound
**Q:** // fetch L-lactate dehydrogenase (Plasmodium falciparum (isolate CDC / Honduras)) (UniProt Q27743) inhibition for "CC(=O)Nc1ccc(S(=O)(=O)Nc2ccc(Nc3nc(C)cc(N(C)C)n3)cc2)cc1"
**A:** -1

* * *

Biological target: Calcium-dependent protein kinase 1 (Plasmodium falciparum (isolate 3D7)) (UniProt P62344)
Sequence (P62344 whole entry, looked up): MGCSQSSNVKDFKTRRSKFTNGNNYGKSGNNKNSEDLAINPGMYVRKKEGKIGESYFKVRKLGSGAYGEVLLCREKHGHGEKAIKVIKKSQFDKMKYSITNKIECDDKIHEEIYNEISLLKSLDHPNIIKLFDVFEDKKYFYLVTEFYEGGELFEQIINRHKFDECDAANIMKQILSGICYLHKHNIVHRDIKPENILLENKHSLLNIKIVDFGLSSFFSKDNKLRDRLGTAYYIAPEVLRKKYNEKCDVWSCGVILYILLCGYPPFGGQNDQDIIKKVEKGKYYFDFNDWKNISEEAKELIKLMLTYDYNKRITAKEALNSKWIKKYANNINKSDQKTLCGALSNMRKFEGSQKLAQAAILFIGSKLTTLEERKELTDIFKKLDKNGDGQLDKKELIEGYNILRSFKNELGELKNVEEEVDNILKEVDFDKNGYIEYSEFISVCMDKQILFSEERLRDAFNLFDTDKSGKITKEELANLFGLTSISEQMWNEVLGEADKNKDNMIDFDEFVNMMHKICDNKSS
Experiment: PfCDPK1 kinase inhibitors, biochemical, TCAMS library (AID 1159585);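 also: inhibitors leave more ATP so luminescence rises with inhibition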
Conditions: recombinant PfCDPK1, Kinase-Glo ATP depletion luminescence
Results with a measured potency or affinity are listed apart. Active and inactive are the calls of the source. The limit is not given here; nearly all actives have IC50 up to about 0.98 µM.
Observable: outcome

The examples below pair each entry with its known result.
Cc1ccccc1OCC(O)CN1CCC(C2CCN(CC(O)COc3ccccc3C)CC2)CC1 (centres undefined)    inactive
Cc1noc(-c2ccc3c(c2)CCN(CCC2CCC(NC(=O)c4cc5ccccc5[nH]4)CC2)CC3)n1 (centres undefined)    inactive
Cc1cc(NC(=O)c2cccs2)ccc1OC1CCN(Cc2ccc(C#N)cc2)CC1    inactive
CC(C)(CNCc1ccc(C(F)(F)F)cc1)c1nc(-c2ccc(Cl)c(O)c2)c(-c2ccncc2)[nH]1    inactive
CCCc1ccc(NC(=O)c2ccc(CN3CCCN(Cc4cccc(O)c4)CC3)cc2)cc1    inactive
Cn1nccc1C(=O)NCCNCc1ccc(-c2cccc(-c3nc4ccc(C(F)(F)F)cc4[nH]3)c2)cc1    inactive
COc1ccc(Oc2ccc(-c3c(C)[nH]c(C)cc3=O)cc2)cc1    inactive
O=C(NCc1ccc(Cl)c(Cl)c1)[C@H]1CNCCN1C(=O)c1ccccc1    inactive
Cc1ccc2c(c1)NC[C@@]21CCN(C[C@@H](O)C2CCN(c3cc(C#N)ccn3)CC2)C[C@@H]1C    inactive
Clc1cc2c(Nc3ccc(Oc4ccccc4)cc3)ccnc2cc1-c1ccc(CNCCN2CCOCC2)o1    inactive

**Q:** Return reported outcome; argument: "CC(C)COc1ccc(Cl)cc1Cc1ccc(-c2nc3ccc(F)cc3[nH]2)o1"
**A:** inactive

**Q:** Would you kindly share the measured outcome for "COc1ccc2sc(CNCCCNc3cc(=O)c4ccccc4[nH]3)c(Cl)c2c1" ?
**A:** inactive

**Q:** Could you tell me which outcome is on file for "O=C(NCCCCN1CCN(CC=Cc2ccccc2)CC1)c1ccc(NC(=O)c2cc(Cl)cc(Cl)c2)cc1" ?
**A:** inactive

* * *

Assay: antimalarial activity against Dd2 strain (AID 2302);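 also: 0% = DMSO untreated growth and 100% = chloroquine plus artemisinin killed control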
Conditions: P. falciparum Dd2 in RBCs, LDH growth readout, 72 h; at 2 µM
The source made the active and inactive calls.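 Rule for the calls: active = growth inhibition above 50% at the single 2 µM test dose, taken to imply half-maximal potency below 2 µM; inactive = the rest.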
Classes to choose from: 1 (active), -1 (inactive)

CN1CCC(Oc2ccc(Nc3nccc(NCC(O)c4ccccc4)n3)cc2Cl)CC1 (centres undefined)    1

**Q:** // param item: "COc1ccc2nccc(NN=Cc3cccc(C)n3)c2c1" ; yields the recorded call
**A:** 1

**Q:** Identify the outcome logged in this assay for the compound shown: "CC(C)CN1CCN(c2nc(C#N)c3c(c2C(=S)NC2CCCCC2)CC(C)(C)OC3)CC1"
**A:** 1
